Test: Metabolic stability in rat liver microsomes (RLMs)
Conditions: rat, microsomes, Metabolic stability: RLM CL R1, summary table, rounded; replicate R1
Property measured: microsomal CLint
Record the result as a number with its unit.

O=C1CC2CCN(CC2)C(=O)[C@H](Cc2ccccc2)NC(=O)[C@@H](NC(=O)c2ccc(Cl)s2)CSCCS(=O)(=O)CCSCCN1 = 187 µL/min/mg
O=C1C[C@H]2CCCN2C(=O)[C@H](Cc2ccccn2)NC(=O)[C@@H](NC(=O)c2ccc(Cl)s2)CSCCS(=O)(=O)CCSCCN1 = 90.2 µL/min/mg
O=C1C[C@H]2CCCN2C(=O)[C@H](Cc2ccccc2)NC(=O)[C@@H](NC(=O)c2ccc(Cl)s2)CSCCS(=O)(=O)CCSCCN1 [peptide 11] = 92.9 µL/min/mg

Read the next record carefully.
Request: For the compound CN1CCC(=O)NCCSCCS(=O)(=O)CCSC[C@H](NC(=O)c2ccc(Cl)s2)C(=O)N[C@@H](Cc2ccccc2)C1=O , what microsomal CLint is on record?
Result: 78.3 µL/min/mg
